# Tested on: ducksalad (Heteranthera limosa)
# assay: Test B flooded paddy test
# Assay type: in vivo
# conditions: Heteranthera limosa, Flood, 250 g ai/ha; scale of 0 to 100 where 0 is no effect and 100 is complete control; read-out: Ducksalad plant response rating
pest or weed control at 250 g/ha less than 90% is Met; pest or weed control at 250 g/ha greater than or equal to 90% is Not met.

{"columns": ["molecule", "label_class"],
 "data": [
  ["CN1C[C@H](c2cc(F)cc(F)c2)[C@@H](C(=O)Nc2ccccc2[S@+](C)[O-])C1=O", "Met"],
  ["CN1CC(c2cccc(I)c2)C(C(=O)Nc2ccccc2F)C1=O (centres unmarked)", "Met"],
  ["Cc1cc(F)ccc1NC(=O)[C@H]1C(=O)N(C)C[C@@H]1c1ccc(C(F)(F)F)cc1", "Met"],
  ["CC(C)Oc1cc([C@H]2CN(C)C(=O)[C@@H]2C(=O)Nc2cccc(F)c2F)cc(C(F)(F)F)c1", "Met"],
  ["Cc1c(F)cccc1NC(=O)[C@H]1C(=O)N(C)C[C@@H]1c1cc(F)cc(C(F)(F)F)c1", "Not met"],
  ["Cc1cc([C@H]2CNC(=O)[C@@H]2C(=O)Nc2ccc(F)cc2F)ccc1F", "Not met"]
]}
